Test protocol: CHI Log D procedure
Type: physicochemical
Run parameters: pH 7.4
Property label: CHI Log D
Number, no unit, nothing else.

>  <Compound>
CC(=O)N[C@@H](Cc1ccccc1)C(=O)N[C@@H](CC(=O)O)C(=O)N[C@@H](C)C(=O)N[C@]1(C)CCCCCCC=CCOC(=O)N2CC[C@@](C(=O)N[C@@H](Cc3ccccc3)C(=O)N[C@@H](Cc3c[nH]c4ccccc34)C(=O)N[C@@H](CCC(N)=O)C(N)=O)(C2)NC(=O)[C@H](C(C)C)NC(=O)[C@H](Cc2ccccc2)NC(=O)[C@H](C)NC(=O)[C@H](C)NC(=O)[C@H](Cc2ccc(-c3ccccc3)cc2)NC(=O)[C@H](CC(=O)O)NC1=O (single isomer, unassigned)

>  <Numeric value>
2.247

$$$$
>  <Compound>
CC(=O)N1CCC[C@]12CC=CCCCC1(CCCC=CCCCCCC[C@@](C)(C(=O)N[C@@H](Cc3ccccc3)C(=O)N[C@@H](Cc3csc4ccccc34)C(=O)N[C@@H](Cc3c[nH]cn3)C(N)=O)NC(=O)[C@H](CC(N)=O)NC(=O)[C@H](Cc3ccccc3)NC(=O)[C@H](C)NC(=O)[C@H](C)NC(=O)[C@H](CC(=O)O)NC(=O)[C@H](CC(=O)O)NC1=O)NC(=O)[C@H](C)NC(=O)[C@H](CC(=O)O)NC2=O (stereo partly drawn) [I-465]

>  <Numeric value>
2.023

$$$$
>  <Compound>
CC(=O)N[C@@H](Cc1ccccc1)C(=O)N[C@@H](CC(=O)O)C(=O)N[C@@H](C)C(=O)N[C@]1(C)CCCCCCC=CCOC(=O)N2CC[C@@](C(=O)N[C@@H](Cc3c(F)c(F)c(F)c(F)c3F)C(=O)N[C@@H](Cc3c[nH]c4ccccc34)C(=O)N[C@@H](CCC(N)=O)C(N)=O)(C2)NC(=O)[C@H](C(C)C)NC(=O)[C@H](Cc2ccccc2)NC(=O)[C@H](C)NC(=O)[C@H](C)NC(=O)[C@H](CC(=O)O)NC(=O)[C@H](CC(=O)O)NC1=O [I-227]

>  <Numeric value>
1.534

$$$$
>  <Compound>
CC(=O)N1CCC[C@]12CC=CCCCC1(CCCC=CCCCCCC[C@@](C)(C(=O)N[C@@H](Cc3ccccc3Cl)C(=O)N[C@@H](Cc3csc4ccccc34)C(=O)N[C@@H](CCC(N)=O)C(N)=O)NC(=O)[C@H]([C@@H](C)O)NC(=O)[C@H](Cc3ccccc3)NC(=O)[C@H](C)NC(=O)[C@H](C)NC(=O)[C@H](CCC(=O)O)NC(=O)[C@H](CC(=O)O)NC1=O)NC(=O)[C@H](CC(C)(C)C)NC(=O)[C@H](CC(=O)O)NC2=O (stereo partly drawn) [I-1088]

>  <Numeric value>
2.8

$$$$
>  <Compound>
CC(=O)N1CCC[C@]12CC=CCCCC1(CCCC=CCCCOC(=O)N3CC[C@@](C(=O)N[C@@H](Cc4ccsc4)C(=O)N[C@@H](Cc4csc5ccccc45)C(=O)N[C@@H](CCC(N)=O)C(N)=O)(C3)NC(=O)[C@H](CCC(N)=O)NC(=O)[C@H](Cc3ccccc3)NC(=O)[C@H](C)NC(=O)[C@H](C)NC(=O)[C@H](CC(=O)O)NC(=O)[C@H](CC(=O)O)NC1=O)NC(=O)[C@H](CC(C)(C)C)NC(=O)[C@H](CC(=O)O)NC2=O (stereo partly drawn) [I-763]

>  <Numeric value>
1.967

$$$$

Form field: reported CHI Log D of CC(=O)N1CCC[C@]12CC=CCCCC1(CCCC=CCCCOC(=O)N3CC[C@@](C(=O)N[C@@H](Cc4ccccc4Cl)C(=O)N[C@@H](Cc4csc5ccccc45)C(=O)N[C@@H](CO)C(N)=O)(C3)NC(=O)[C@H](CC(C)C)NC(=O)[C@H](Cc3ccccc3)NC(=O)[C@H](C)NC(=O)[C@H](C)NC(=O)[C@H](CC(=O)O)NC(=O)[C@H](CC(=O)O)NC1=O)NC(=O)[C@H](CC(C)(C)C)NC(=O)[C@H](CC(=O)O)NC2=O (stereo partly drawn) [I-1064]
1.967

Name the recorded CHI Log D for CC(=O)N1CCC[C@]12CC=CCCCC1(CCCC=CCCCCCC[C@@](C)(C(=O)N[C@@H](Cc3ccccc3)C(=O)N[C@@H](Cc3c[nH]c4ccccc34)C(=O)N[C@@H](CCC(N)=O)C(N)=O)NC(=O)[C@H](C(C)C)NC(=O)[C@H](Cc3ccc(N)cc3)NC(=O)[C@H](C)NC(=O)[C@H](C)NC(=O)[C@H](CC(=O)O)NC(=O)[C@H](CC(=O)O)NC1=O)NC(=O)[C@H](C)NC(=O)[C@H](CC(=O)O)NC2=O (stereo partly drawn) [I-322] .
1.933

GET /values?readout=CHI Log D&item= CC[C@H](C)[C@@H]1NC(=O)C[C@H](CC(=O)O)NC(=O)[C@]2(CC=CCCCC3(CCCC=CCCCCCC[C@@](C)(C(=O)N[C@@H](Cc4ccccc4)C(=O)N[C@@H](Cc4csc5ccccc45)C(=O)N[C@@H](CCC(N)=O)C(N)=O)NC(=O)[C@H](CCC(N)=O)NC(=O)[C@H](Cc4ccccc4)NC(=O)[C@H](C)NC(=O)[C@H](C)NC(=O)[C@H](CCC(=O)O)NC(=O)[C@H](CC(=O)O)NC3=O)NC1=O)CCCN2C(C)=O (stereo partly drawn) [I-670]
2.16

Param item = COCCOCCC(=O)NCCCC[C@@H]1NC(=O)[C@H](C)NC(=O)[C@H](CC(=O)O)NC(=O)[C@H](CC(=O)O)NC(=O)C2(CCCC=CCCCOC(=O)N3CC[C@@](C(=O)N[C@@H](Cc4ccsc4)C(=O)N[C@@H](Cc4csc5ccccc45)C(=O)N[C@@H](CCC(N)=O)C(N)=O)(C3)NC(=O)[C@H](CC(N)=O)NC(=O)[C@H](Cc3ccccc3)NC1=O)CCCC=CC[C@]1(CCCN1C(C)=O)C(=O)N[C@@H](CC(=O)O)C(=O)N[C@@H](CC(C)(C)C)C(=O)N2 (stereo partly drawn) [I-893] ; retrieve measured CHI Log D.
1.759

====

Each entry below lists one item and its recorded pIC50 value.
Measurement target: full-length beta-Catenin (Uniprot ID P35222) (Homo sapiens)
Construct: 10 nM full-length beta-Catenin (Uniprot ID P35222)
Sequence (P35222 1-781): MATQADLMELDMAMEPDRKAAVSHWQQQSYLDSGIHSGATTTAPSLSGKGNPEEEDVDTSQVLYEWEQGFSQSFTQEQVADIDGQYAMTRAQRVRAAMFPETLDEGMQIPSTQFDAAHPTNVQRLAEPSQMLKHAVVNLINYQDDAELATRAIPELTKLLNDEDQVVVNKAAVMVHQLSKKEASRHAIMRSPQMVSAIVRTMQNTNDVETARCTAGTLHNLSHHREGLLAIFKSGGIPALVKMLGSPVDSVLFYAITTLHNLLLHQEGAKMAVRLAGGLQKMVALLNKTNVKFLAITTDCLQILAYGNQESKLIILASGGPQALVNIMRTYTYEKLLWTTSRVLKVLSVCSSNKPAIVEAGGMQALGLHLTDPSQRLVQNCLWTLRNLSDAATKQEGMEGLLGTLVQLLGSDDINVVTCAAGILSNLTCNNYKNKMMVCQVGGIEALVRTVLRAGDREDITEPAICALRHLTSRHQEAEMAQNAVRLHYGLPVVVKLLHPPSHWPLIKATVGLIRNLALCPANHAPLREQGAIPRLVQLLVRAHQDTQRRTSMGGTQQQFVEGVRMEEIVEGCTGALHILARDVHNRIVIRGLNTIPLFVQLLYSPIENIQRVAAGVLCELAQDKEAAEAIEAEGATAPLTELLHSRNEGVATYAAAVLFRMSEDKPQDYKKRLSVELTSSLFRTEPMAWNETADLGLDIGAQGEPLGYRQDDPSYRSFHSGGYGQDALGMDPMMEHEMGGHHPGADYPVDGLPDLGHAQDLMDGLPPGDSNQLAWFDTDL
Test protocol: Fluorescence polarization IC50 (beta-catenin / 5FAM-TCF4 10-53 competition)
Assay type: binding
Run parameters: fluorescence polarization; read-out: beta-Catenin FP IC50
Lab note: report pIC50 as minus log10 of the concentration in molar units, number only.

>  <Compound>
CC(=O)N1CCC[C@]12CC=CCCCC1(CCCC=CCCCOC(=O)N3CC[C@@](C(=O)N[C@@H](Cc4ccccc4Cl)C(=O)N[C@@H](Cc4csc5ccccc45)C(=O)N[C@@H](CCCN4CCOCC4)C(N)=O)(C3)NC(=O)[C@H]([C@@H](C)O)NC(=O)[C@H](Cc3ccccc3)NC(=O)[C@H](C)NC(=O)[C@H](C)NC(=O)[C@H](CN(CC(=O)O)CC(F)(F)F)NC(=O)[C@H](CC(=O)O)NC1=O)NC(=O)[C@H](CC(C)(C)C)NC(=O)[C@H](CC(=O)O)NC2=O (some centres unmarked) [I-1609]

>  <pIC50>
7.82

$$$$

Here's the next entry for you.
Look at this compound and give its reported pIC50. CC(=O)N1CCC[C@]12CC=CCCCC1(CCCC=CCCCOC(=O)N3CC[C@@](C(=O)N[C@@H](Cc4cccc(C(N)=O)c4)C(=O)N[C@@H](Cc4csc5ccccc45)C(=O)N[C@@H](CCO)C(N)=O)(C3)NC(=O)[C@H](CC(N)=O)NC(=O)[C@H](Cc3ccccc3)NC(=O)[C@H](C)NC(=O)[C@H](CCCCNC(C)C)NC(=O)[C@H](CCC(N)=O)NC(=O)[C@H](CC(=O)O)NC1=O)NC(=O)[C@H](CC1CCCCC1)NC(=O)[C@H](CC(N)=O)NC2=O (some centres unmarked) [I-1929]
7.13
